# System: PXR homodimer (NR concentration 270 nM)
# test_details: PBM binding z-score (relative to random genomic background probes); higher = stronger binding; sequences stand for … in GC…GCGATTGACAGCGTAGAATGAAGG
measured_parameter: PBM binding z-score
Answers are plain numbers.

Use these answered entries as a reference point.
>>> assay_result("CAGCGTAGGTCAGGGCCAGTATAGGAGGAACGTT")
-0.644
>>> assay_result("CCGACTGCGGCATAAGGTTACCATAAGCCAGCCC")
-0.316
>>> assay_result("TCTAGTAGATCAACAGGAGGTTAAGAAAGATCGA")
0.18
>>> assay_result("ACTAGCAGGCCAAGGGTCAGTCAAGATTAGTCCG")
-0.439
>>> assay_result("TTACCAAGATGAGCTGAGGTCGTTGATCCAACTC")
0.628
>>> assay_result("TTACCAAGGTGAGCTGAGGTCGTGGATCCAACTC")
-0.246

I would be grateful if you could provide PBM binding z-score for each of the following entries.
1. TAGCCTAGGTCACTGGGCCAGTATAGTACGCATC
2. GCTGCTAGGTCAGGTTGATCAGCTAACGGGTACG
3. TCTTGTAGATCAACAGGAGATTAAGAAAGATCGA
4. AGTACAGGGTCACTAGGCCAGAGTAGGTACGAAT
5. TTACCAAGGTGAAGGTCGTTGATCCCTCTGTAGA

Outgoing:
1: -0.648; 2: -0.392; 3: -0.21; 4: 0.0901; 5: 0.114
